- test_description: gradient 5% acetonitrile 3 min, to 50% in 2 min, to 85% in 15 min, held 3 min, 100 µL/min
- cond: column: Zorbax Extend-C18 2.1 x 50 mm; eluents: water / acetonitrile, 0.1% formic acid
readout_name: RP-LC retention time (s)

Study these solved cases before continuing.
molecule	RP-LC retention time [s]
Cc1ccc(C(=O)NCc2ccc3c(c2)nnn3C)cc1	693
COc1ccc(-c2noc(-c3ccc(NC(=O)c4cccs4)cc3)n2)cc1	1140
O=C(NCc1ccc(C(F)(F)F)cc1)c1c(O)c2cccnc2[nH]c1=O	1010
O=C(Nc1cnc(N2CCCCCC2)nc1)C1CCCC1	844
O=C(Cn1cccc1-c1nnc(C2CCC2)o1)NCc1ccc(F)cc1	832
CCN(CC)C(=O)c1ccc(-c2nc3cc(NS(=O)(=O)c4ccc(C)c(C)c4)ccc3n2C)cc1	726
CCOC(=O)C1=C(N)Oc2cc(C)n(CCN(C)C)c(=O)c2C1c1ccccc1F (centres undefined)	648

P: Cc1ccc(C)c(-c2cc3c(=O)n(Cc4nc(-c5ccc6c(c5)OCO6)no4)ncn3n2)c1
Q: Cc1ccc(NC(=O)C2CCCN(c3nc4ccccc4nc3C(F)(F)F)C2)c(Cl)c1 (centres undefined)
q: Smaller RP-LC retention time value, P vs Q ? Mark your answer with the label of the selected entry.
a: P
(P: 683 s, Q: 1350 s)

# credit: the METLIN SMRT retention time set (Domingo-Almenara et al. 2019)
